- study-system: human ADAMTS-5 (Homo sapiens (Human))
- Sequence (Q9UNA0 262-930): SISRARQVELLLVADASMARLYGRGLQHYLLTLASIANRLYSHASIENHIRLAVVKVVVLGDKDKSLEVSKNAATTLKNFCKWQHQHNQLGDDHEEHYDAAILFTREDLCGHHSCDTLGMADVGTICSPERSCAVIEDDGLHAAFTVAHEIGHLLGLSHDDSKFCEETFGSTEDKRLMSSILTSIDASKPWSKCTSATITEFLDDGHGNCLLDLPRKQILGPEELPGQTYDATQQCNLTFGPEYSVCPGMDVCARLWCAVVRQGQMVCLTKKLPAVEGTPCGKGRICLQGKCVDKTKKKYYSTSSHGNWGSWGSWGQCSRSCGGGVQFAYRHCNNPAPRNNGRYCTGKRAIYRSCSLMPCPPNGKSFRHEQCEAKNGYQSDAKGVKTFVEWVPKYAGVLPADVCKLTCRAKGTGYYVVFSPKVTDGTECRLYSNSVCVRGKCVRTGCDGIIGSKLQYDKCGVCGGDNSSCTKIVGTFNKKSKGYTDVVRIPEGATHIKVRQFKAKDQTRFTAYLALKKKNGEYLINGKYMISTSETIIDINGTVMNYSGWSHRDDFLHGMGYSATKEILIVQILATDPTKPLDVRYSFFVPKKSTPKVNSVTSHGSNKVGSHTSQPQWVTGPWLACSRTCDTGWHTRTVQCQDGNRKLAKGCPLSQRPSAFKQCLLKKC
- condition: read-out: hADAMTS-5 potency IC50
pIC50: −log10 of the molar value.
# if value of pIC50 reaches 7, tag met; if it stays below, tag not met

{"compound": "CC1(CCC(=O)N2CCN(c3ccc(F)cc3)CC2)NC(=O)NC1=O (centres unmarked) [compound 66]", "study-system": "human ADAMTS-5 (Homo sapiens (Human))", "class-assignment": "not met"}
{"compound": "Cc1c(Cl)cccc1N1CCN(C(=O)CCC2(c3ccccc3)NC(=O)NC2=O)CC1 (centres unmarked) [compound 21]", "study-system": "human ADAMTS-5 (Homo sapiens (Human))", "class-assignment": "not met"}
{"compound": "O=C1NC(=O)C(CCC(=O)N2CCN(c3ccc4ccccc4n3)CC2)(c2ccccc2)N1 (centres unmarked) [compound 15]", "study-system": "human ADAMTS-5 (Homo sapiens (Human))", "class-assignment": "not met"}
{"compound": "Cc1ccc(N2CCN(C(=O)CCC3(C)NC(=O)NC3=O)CC2)c(C)c1 (centres unmarked) [compound 38]", "study-system": "human ADAMTS-5 (Homo sapiens (Human))", "class-assignment": "not met"}
{"compound": "COc1ccc(Cl)cc1C1(CCC(=O)N2CCN(c3cccc(Cl)c3)CC2)NC(=O)NC1=O (centres unmarked) [compound 132]", "study-system": "human ADAMTS-5 (Homo sapiens (Human))", "class-assignment": "met"}
{"compound": "Cc1ccc(Cl)cc1N1CCN(C(=O)CCC2(C3CCC3)NC(=O)NC2=O)CC1 (centres unmarked) [compound 71]", "study-system": "human ADAMTS-5 (Homo sapiens (Human))", "class-assignment": "not met"}
{"compound": "Cc1ccc(Cl)cc1N1CCN(C(=O)CCC2(C)NC(=O)NC2=O)CC1 (centres unmarked) [compound 16]", "study-system": "human ADAMTS-5 (Homo sapiens (Human))", "class-assignment": "not met"}
{"compound": "O=C1NC(=O)C(CCC(=O)N2CCN(c3cccnc3)CC2)(c2ccccc2)N1 (centres unmarked) [compound 45]", "study-system": "human ADAMTS-5 (Homo sapiens (Human))", "class-assignment": "not met"}
{"compound": "O=C1NC(=O)C(CCC(=O)N2CCN(c3cccc(F)c3)CC2)(c2ccccn2)N1 (centres unmarked) [compound 103]", "study-system": "human ADAMTS-5 (Homo sapiens (Human))", "class-assignment": "met"}
{"compound": "Cc1ccc(N2CCN(C(=O)CCC3(c4ccccc4)NC(=O)NC3=O)CC2)c(C)c1 (centres unmarked) [compound 31]", "study-system": "human ADAMTS-5 (Homo sapiens (Human))", "class-assignment": "not met"}
{"compound": "O=C1NC(=O)C(CCC(=O)N2CCN(c3cccc(Cl)c3)CC2)(C2CCCCC2)N1 (centres unmarked) [compound 72]", "study-system": "human ADAMTS-5 (Homo sapiens (Human))", "class-assignment": "not met"}
